Origin of values: patent US6391870B2

Attribute: pKi
biological target: muscarinic receptors; settings: rat cortex, [3H]QNB; average of three determinations
pKi: −log10 of the molar value.

Molecule	pKi
CN1CCN(C2Cn3cccc3Sc3ccc(F)cc32)CC1 (racemic) [ST1456]	5.65
CN1CCN(C2Cn3cccc3Sc3ccc(Cl)cc32)CC1 (racemic) [ST1455]	6.38
CN1CCN(C2Cc3ccccc3Sc3ccc(Cl)cc32)CC1 (stereo not shown) [RS-Octoclothepin]	6.36
CN1CCN([C@H]2Cc3ccccc3Sc3ccc(Cl)cc32)CC1 [S-(+)-Octoclothepin]	6.13
CN1CCN([C@@H]2Cc3ccccc3Sc3ccc(Cl)cc32)CC1 [R-(−)-Octoclothepin]	6.81
CN1CCN(C2Cn3cccc3Sc3ccc(Cl)cc32)CC1 (single isomer, unassigned) [ST1461]	6.29
CN1CCN(C2Cn3cccc3Sc3ccc(Cl)cc32)CC1 (single isomer, unassigned; (+)) [ST1460]	6.54

----------
target: DA-3 receptors (Rattus norvegicus, UniProt P19020); construct: olfactory tubercle for DA-3 receptors; from tissue; host or cells: rat olfactory tubercle membranes; experiment: [3H]-7-OH-DPAT binding to DA-3 receptors (rat olfactory tubercle); settings: D3 affinity Ki, [3H]-7-OH-DPAT, average ± standard error
Sequence (P19020 whole entry): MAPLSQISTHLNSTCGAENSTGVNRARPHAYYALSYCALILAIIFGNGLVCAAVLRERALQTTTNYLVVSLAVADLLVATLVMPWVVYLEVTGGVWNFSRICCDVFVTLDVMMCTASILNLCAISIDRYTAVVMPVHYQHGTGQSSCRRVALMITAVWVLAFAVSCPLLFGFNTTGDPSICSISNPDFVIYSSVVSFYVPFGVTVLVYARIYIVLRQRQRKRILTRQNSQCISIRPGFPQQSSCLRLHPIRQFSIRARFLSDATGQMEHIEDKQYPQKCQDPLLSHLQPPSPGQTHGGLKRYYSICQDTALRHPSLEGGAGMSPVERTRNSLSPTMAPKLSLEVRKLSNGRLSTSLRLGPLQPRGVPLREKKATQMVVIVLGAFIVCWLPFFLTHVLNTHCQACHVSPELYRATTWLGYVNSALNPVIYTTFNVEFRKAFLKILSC
pKi: −log10 of the molar value.

Compound	pKi
CN1CCN([C@H]2Cc3ccccc3Sc3ccc(Cl)cc32)CC1 [S-(+)-Octoclothepin]	9.12
